assay: in vivo; settings: both, Cynomolgus, cynomolgus monkey, plasma, subcutaneous
measure name: Tmax

Data request: Reported Tmax for "CC(C)C[C@H](NC(=O)[C@H](Cc1ccccc1)NC(=O)c1cnccn1)B(O)O" : what is it?
Data returned: ≤ 15 min

###

experiment: in vivo; conditions: both, cynomolgus monkey, plasma, sc, 0.0166 mg/kg
measure name: Cmax (ng/mL)
Quick note: give the figure in ng/mL, leave out the unit.

Data request: Reported Cmax for "CC(C)C[C@H](NC(=O)[C@H](Cc1ccccc1)NC(=O)c1cnccn1)B(O)O" : what is it?
Data returned: 10.7

Data provenance is patent US20110189204A1.
